Recorded measurements of koff, one per entry
- measurement-target: T1, recombinant human OX40/His fusion protein (Novoprotein, CB17) (human, UniProt P43489 29-216)
- T1 construct: Bought protein
- T1 sequence: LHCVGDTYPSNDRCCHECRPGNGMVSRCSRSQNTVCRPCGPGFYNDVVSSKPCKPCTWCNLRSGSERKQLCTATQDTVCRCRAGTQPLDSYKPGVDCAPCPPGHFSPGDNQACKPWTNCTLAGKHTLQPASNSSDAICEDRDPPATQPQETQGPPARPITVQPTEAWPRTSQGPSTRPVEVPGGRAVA
- assay-protocol: BLI (Octet RED96), antibody on AHC sensor, OX40/His as analyte, test group 4
Give just the numeric value; s⁻¹ need not be written.

Recorded results for 2 binders are shown here.
• EM1007-mAb044c-17 (antibody, human IgG1, kappa, L234A L235A, V domains shown) VH: EVQLQQSGAEVKKPGSSVKVSCKASGHAFSSSWMNWVKQRPGKGLEWIGRIYPGDEITNYNAKFKDKATLTADKSTSTAYMELSSLRSEDTAVYYCARDLLMPYWGQGTLVTVSS VL: DIVMTQTAFSNPVTLGTSASISCRSSKSLLYSNAITYLYWYLQKPGQSPHLLIYQMSNLAPGVPDRFSSSGSGTDFTLRISRVEAEDVGIYYCAQNLELPFTFGSGTKLEIKR = 0.000256
• HuEM1007-044-14 (antibody, human IgG1, kappa, L234A L235A, V domains shown, Humanized anti-OX40, human IgG1 LALA / kappa) VH: EVQLVQSGAEVKKPGSSVKVSCKASGGTFSSSWMNWVRQRPGKGLEWMGRIYPGDEITNYNAKFKDRVTITADKSTSTAYMELSSLRSEDTAVYYCARDLLMPYWGQGTLVTVSS VL: DIVMTQTPLSLPVTPGEPASISCRSSKSLLYSNAITYLYWYLQKPGQSPQLLIYQMSNLAPGVPDRFSSSGSGTDFTLKISRVEAEDVGVYYCAQNLELPFTFGQGTKLEIKR = 0.000952

Consider the record given below.
// query Param item = EM1007-44c (antibody, human IgG1, V domains shown, also called EM1007-mAb044c; EM1007-044c) VH: QVQLQQSGPELVKPGASVTISCKASGHAFSSSWMNWVKQRPGKGLEWIGRIYPGDEITNYNGKFKDKATLTADKSSSTAYMQLSSLTFEDSAVYFCARDLLMPYWGQGTLVTVSA VL: DIVMTQTAFSNPVTLGTSASISCRSSKSLLYSNGITYLYWYLQKPGQSPHLLIYQMSNLAPGVPDRFSSSGSGTDFTLRISRVEAEDVGIYYCAQNLELPFTFGSGTKLEIK ; retrieve measured koff.
// result 0.000279
